# TARGET DESC: BACE1 (Homo sapiens, UniProt P56817)
# Construct: endogenous in cells
# Sequence (P56817 46-501): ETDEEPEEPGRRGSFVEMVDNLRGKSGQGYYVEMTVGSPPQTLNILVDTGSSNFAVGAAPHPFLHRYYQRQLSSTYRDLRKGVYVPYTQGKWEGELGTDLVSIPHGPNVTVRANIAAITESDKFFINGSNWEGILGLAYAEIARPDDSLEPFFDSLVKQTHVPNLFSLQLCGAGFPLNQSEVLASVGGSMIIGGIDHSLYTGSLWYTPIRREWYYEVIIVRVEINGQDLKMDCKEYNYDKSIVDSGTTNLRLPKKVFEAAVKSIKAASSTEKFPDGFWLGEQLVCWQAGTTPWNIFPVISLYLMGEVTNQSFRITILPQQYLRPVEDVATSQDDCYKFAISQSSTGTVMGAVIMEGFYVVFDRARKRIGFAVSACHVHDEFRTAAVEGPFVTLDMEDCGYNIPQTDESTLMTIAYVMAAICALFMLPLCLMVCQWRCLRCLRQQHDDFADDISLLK
# PROTOCOL NOTES: Cellular Aβ-lowering assay (Abeta 40 AlphaLISA)
# CONDITIONS USED: HEK293 APP cells; 18-20 hrs incubation; Aβ 40 in culture supernatants by AlphaLISA; read-out: BACE1 cell act. Aβ40 IC50
OBSERVABLE: IC50 (nM)

> print(dat)
                                   compound  observable  readout.unit  quantitative.result
1  C[C@@]1(c2cc(NC(=O)c3ccc(C#N)cn3)cs2)C[C@@H](C(F)(F)F)OC(N)=N1 [Example 35]        IC50            nM                   88

(P) Cc1cc(F)c([C@]2(C)C[C@@H](C(F)(F)F)OC(N)=N2)cc1C#Cc1ncc(Cl)cn1 [Example 72]
(Q) N#Cc1ccc(C#Cc2ccc(F)c([C@]3(CF)C[C@@H](C(F)(F)F)OC(N)=N3)c2)cc1 [Example 60]
Would you kindly point out which of P and Q has the smaller IC50 figure? Give the label under which the chosen entry appears.
P

----------
# TARGET DESC: BACE1 (Homo sapiens)
# Construct: endogenous in cells
# PROTOCOL NOTES: Cellular Aβ-lowering assay (Abeta 40 AlphaLISA)
# CONDITIONS USED: HEK293 APP cells; 18-20 hrs incubation; Aβ 40 in culture supernatants by AlphaLISA; read-out: BACE1 cell act. Aβ40 IC50
pIC50: −log10 of the molar value.
OBSERVABLE: pIC50

> print(dat)
                                   compound  observable  quantitative.result
1  C[C@@]1(c2cc(C#Cc3nn(C(F)F)cc3Cl)ccc2F)C[C@@H](C(F)(F)F)OC(N)=N1 [Example 68]       pIC50                 6.80

(I) C[C@@]1(c2cc(C#Cc3cnc(C#N)nc3)ccc2F)C[C@@H](C(F)(F)F)OC(N)=N1 [Example 54]
(II) C[C@@]1(c2cc(-c3cncc(Cl)c3)ccc2F)C[C@@H](C(F)(F)F)OC(N)=N1 [Example 13]
Which value of pIC50 is numerically greater: that of I or that of II ? Give the label under which the chosen entry appears.
II

----------
# TARGET DESC: BACE1 (Homo sapiens)
# Construct: endogenous in cells
# PROTOCOL NOTES: Cellular Aβ-lowering assay (Abeta 40 AlphaLISA)
# CONDITIONS USED: HEK293 APP cells; 18-20 hrs incubation; Aβ 40 in culture supernatants by AlphaLISA; read-out: BACE1 cell act. Aβ40 IC50
pIC50: −log10 of the molar value.
OBSERVABLE: pIC50

> print(dat)
                                   molecule  quantitative.result
1  CC#CCOc1cnc(C(=O)Nc2ccc(F)c([C@@]3(C)N=C(N)O[C@H](C(F)(F)F)[C@@H]3F)c2)cn1                 8.70
2  C[C@@]1(c2cc(NC3CCc4cc(C#N)cnc43)ccc2F)C[C@@H](C(F)(F)F)OC(N)=N1 (stereo partly shown)                 7.48

(I) C[C@@]1(c2cc(C#Cc3cncnc3)ccc2F)C[C@@H](C(F)(F)F)OC(N)=N1
(II) C[C@]1(c2cc(NC(=O)c3ccc(Cl)cn3)ccc2F)N=C(N)O[C@@H](C(F)(F)F)[C@@H]1F
Would you kindly point out which of I and II has the smaller pIC50 figure? Give the label under which the chosen entry appears.
I
(I: 5.58, II: 6.31)
